Test system: SW 982 tumor spheroid viability
Assay: Anticancer human tumor SW 982 cell line growth inhibition;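 note: spheroids exposed to compound for 7 days before readout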
Details: second compound 0.3 µM; first compound 1 µM; stronger effect = lower value; spheroids with HUVEC and MSC
Test readout: viability, T/C

Some solved cases for reference:
Compound | viability, T/C
CC1COCCN1c1cc(-c2ccnn2C)c2ccnc(-c3ccn[nH]3)c2n1 (stereo unspecified) + CC[C@@]1(O)C(=O)OCc2c1cc1n(c2=O)Cc2cc3c(CN(C)C)c(O)ccc3nc2-1 | 6.54%
COc1ccc([C@@H](O)c2cc(-c3ncnc4cc(N5CCOCC5)ccc34)c(F)cc2Cl)nn1 + CC[C@@]1(O)C(=O)OCc2c1cc1n(c2=O)Cc2cc3c(CN(C)C)c(O)ccc3nc2-1 | 23.2%
Cc1cc(C)c(CNC(=O)c2cc(-c3ccc(CN4CCOCC4)cc3)cc3c2cnn3C2CCCC2)c(=O)[nH]1 + CC[C@@]1(O)C(=O)OCc2c1cc1n(c2=O)Cc2cc3c(CN(C)C)c(O)ccc3nc2-1 | 55%
COc1cc(C)[nH]c(=O)c1CN1CCc2c(Cl)cc(C(OC)C3COC3)c(Cl)c2C1=O (stereo unspecified) + CC[C@@]1(O)C(=O)OCc2c1cc1n(c2=O)Cc2cc3c(CN(C)C)c(O)ccc3nc2-1 | 41.2%
CC(C)n1c(=O)n(C)c2cnc3cc(F)c(-c4ccc(OCCCN5CCCCC5)nc4)cc3c21 + CC[C@@]1(O)C(=O)OCc2c1cc1n(c2=O)Cc2cc3c(CN(C)C)c(O)ccc3nc2-1 | 30%

Here's the next entry for you.
Lab book: viability, T/C of [2H]c1nc(C)nc([2H])c1-c1cc(NC[C@@H](C)c2cccc3c(C(=O)NC)ccnc23)ncn1 + CC[C@@]1(O)C(=O)OCc2c1cc1n(c2=O)Cc2cc3c(CN(C)C)c(O)ccc3nc2-1 noted as 62.5%

###

Tested on: SW 982 tumor spheroid viability
Test: Anticancer human tumor SW 982 cell line growth inhibition;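 note: spheroids exposed to compound for 7 days before readout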
Conditions: second compound 94.9 pM; first compound 0.0949 µM; stronger effect = lower value; spheroids with HUVEC and MSC
Test readout: viability, T/C (%)
Give the value, in units of %, as a plain number.

Worked set:
Compound | Readout units | Assay result
Cn1ncnc1[C@H]1c2n[nH]c(=O)c3cc(F)cc(c23)N[C@@H]1c1ccc(F)cc1 + COc1cc2c(cc1O)CCNC21CSC2c3c(OC(C)=O)c(C)c4c(c3C(COC1=O)N1C(O)C3Cc5cc(C)c(OC)c(O)c5C(C21)N3C)OCO4 | % | 82
O=C(c1cc(Cc2n[nH]c(=O)c3ccccc23)ccc1F)N1CCN(C(=O)C2CC2)CC1 + COc1cc2c(cc1O)CCNC21CSC2c3c(OC(C)=O)c(C)c4c(c3C(COC1=O)N1C(O)C3Cc5cc(C)c(OC)c(O)c5C(C21)N3C)OCO4 | % | 93.1
Cc1sc2c(c1C)C(c1ccc(Cl)cc1)=NC(CC(=O)Nc1ccc(O)cc1)c1nnc(C)n1-2 (centres undefined) + COc1cc2c(cc1O)CCNC21CSC2c3c(OC(C)=O)c(C)c4c(c3C(COC1=O)N1C(O)C3Cc5cc(C)c(OC)c(O)c5C(C21)N3C)OCO4 | % | 71.1

Turning now to a further compound:
The compound CNCc1ccc(-c2cc(-c3nc(-c4ccc(S(=O)(=O)C(C)C)cc4)cnc3N)on2)cc1 + COc1cc2c(cc1O)CCNC21CSC2c3c(OC(C)=O)c(C)c4c(c3C(COC1=O)N1C(O)C3Cc5cc(C)c(OC)c(O)c5C(C21)N3C)OCO4 showed viability, T/C equal to 55.9

###

Test system: SW 982 tumor spheroid viability
Assay: Anticancer human tumor SW 982 cell line growth inhibition;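 note: spheroids exposed to compound for 7 days before readout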
Settings: second compound 3.16 µM; first compound 0.3 µM; stronger effect = lower value; spheroids with HUVEC and MSC
Test readout: viability, T/C (%)
Write it as a number; the unit % goes unstated.

Consider the worked cases shown below.
Molecule | Readout units | viability, T/C
Cn1ncnc1[C@H]1c2n[nH]c(=O)c3cc(F)cc(c23)N[C@@H]1c1ccc(F)cc1 + Cn1nnc2c(C(N)=O)ncn2c1=O | % | 73
O=C(c1cc(Cc2n[nH]c(=O)c3ccccc23)ccc1F)N1CCN(C(=O)C2CC2)CC1 + Cn1nnc2c(C(N)=O)ncn2c1=O | % | 93.8
Cc1sc2c(c1C)C(c1ccc(Cl)cc1)=NC(CC(=O)Nc1ccc(O)cc1)c1nnc(C)n1-2 (centres undefined) + Cn1nnc2c(C(N)=O)ncn2c1=O | % | 43.8

viability, T/C of CNCc1ccc(-c2cc(-c3nc(-c4ccc(S(=O)(=O)C(C)C)cc4)cnc3N)on2)cc1 + Cn1nnc2c(C(N)=O)ncn2c1=O , assay on SW 982 tumor spheroid viability, is 39.5

###

Tested on: SW 982 tumor spheroid viability
Assay: Anticancer human tumor SW 982 cell line growth inhibition;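 note: spheroids exposed to compound for 7 days before readout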
Conditions: second compound 0.3 µM; first compound 0.0949 µM; stronger effect = lower value; spheroids with HUVEC and MSC
Test readout: viability, T/C (%)
# number only, unit % dropped from output

Compound | Readout units | viability, T/C
Cc1sc2c(c1C)C(c1ccc(Cl)cc1)=NC(CC(=O)Nc1ccc(O)cc1)c1nnc(C)n1-2 (centres undefined) + CC[C@@]1(O)C(=O)OCc2c1cc1n(c2=O)Cc2cc3c(CN(C)C)c(O)ccc3nc2-1 | % | 71
CNCc1ccc(-c2cc(-c3nc(-c4ccc(S(=O)(=O)C(C)C)cc4)cnc3N)on2)cc1 + CC[C@@]1(O)C(=O)OCc2c1cc1n(c2=O)Cc2cc3c(CN(C)C)c(O)ccc3nc2-1 | % | 45.5
Cn1ncnc1[C@H]1c2n[nH]c(=O)c3cc(F)cc(c23)N[C@@H]1c1ccc(F)cc1 + CC[C@@]1(O)C(=O)OCc2c1cc1n(c2=O)Cc2cc3c(CN(C)C)c(O)ccc3nc2-1 | % | 41.9

// below: viability, T/C requested for another compound
response.value for O=C(c1cc(Cc2n[nH]c(=O)c3ccccc23)ccc1F)N1CCN(C(=O)C2CC2)CC1 + CC[C@@]1(O)C(=O)OCc2c1cc1n(c2=O)Cc2cc3c(CN(C)C)c(O)ccc3nc2-1 (field: viability, T/C) = 36.2

###

System: SW 982 tumor spheroid viability
Assay: Anticancer human tumor SW 982 cell line growth inhibition; active = viability on the fitted dose curve at most 10% of control; inactive = the rest;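 note: spheroids exposed to compound for 7 days before readout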
Settings: second compound 0.003 µM; first compound 1 µM; spheroids with HUVEC and MSC
Could you please pick one outcome from this set? active, inactive

Molecule | Discrete label
[2H]c1nc(C)nc([2H])c1-c1cc(NC[C@@H](C)c2cccc3c(C(=O)NC)ccnc23)ncn1 + CC[C@@]1(O)C(=O)OCc2c1cc1n(c2=O)Cc2cc3c(CN(C)C)c(O)ccc3nc2-1 | inactive
[2H]c1nc(C)nc([2H])c1-c1cc(NC[C@@H](C)c2cccc3c(C(=O)NC)ccnc23)ncn1 + COc1cc2c(cc1O)CCNC21CSC2c3c(OC(C)=O)c(C)c4c(c3C(COC1=O)N1C(O)C3Cc5cc(C)c(OC)c(O)c5C(C21)N3C)OCO4 | active
COc1cc(C)[nH]c(=O)c1CN1CCc2c(Cl)cc(C(OC)C3COC3)c(Cl)c2C1=O (centres undefined) + COc1cc2c(cc1O)CCNC21CSC2c3c(OC(C)=O)c(C)c4c(c3C(COC1=O)N1C(O)C3Cc5cc(C)c(OC)c(O)c5C(C21)N3C)OCO4 | active
COc1ccc([C@@H](O)c2cc(-c3ncnc4cc(N5CCOCC5)ccc34)c(F)cc2Cl)nn1 + CC[C@@]1(O)C(=O)OCc2c1cc1n(c2=O)Cc2cc3c(CN(C)C)c(O)ccc3nc2-1 | inactive
Cc1cc(C)c(CNC(=O)c2cc(-c3ccc(CN4CCOCC4)cc3)cc3c2cnn3C2CCCC2)c(=O)[nH]1 + COc1cc2c(cc1O)CCNC21CSC2c3c(OC(C)=O)c(C)c4c(c3C(COC1=O)N1C(O)C3Cc5cc(C)c(OC)c(O)c5C(C21)N3C)OCO4 | active

Returns: the outcome recorded for CC(C)n1c(=O)n(C)c2cnc3cc(F)c(-c4ccc(OCCCN5CCCCC5)nc4)cc3c21 + COc1cc2c(cc1O)CCNC21CSC2c3c(OC(C)=O)c(C)c4c(c3C(COC1=O)N1C(O)C3Cc5cc(C)c(OC)c(O)c5C(C21)N3C)OCO4 in this assay.
active

###

Test system: SW 982 tumor spheroid viability
Assay: Anticancer human tumor SW 982 cell line growth inhibition;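 note: spheroids exposed to compound for 7 days before readout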
Details: second compound 1 µM; first compound 0.0949 µM; stronger effect = lower value; spheroids with HUVEC and MSC
Test readout: viability, T/C

Lab note: measured viability, T/C of Cn1ncnc1[C@H]1c2n[nH]c(=O)c3cc(F)cc(c23)N[C@@H]1c1ccc(F)cc1 + Cn1nnc2c(C(N)=O)ncn2c1=O was 86.6%

Quick note, viability, T/C for O=C(c1cc(Cc2n[nH]c(=O)c3ccccc23)ccc1F)N1CCN(C(=O)C2CC2)CC1 + Cn1nnc2c(C(N)=O)ncn2c1=O landed at 93.2%

According to the records, this molecule Cc1sc2c(c1C)C(c1ccc(Cl)cc1)=NC(CC(=O)Nc1ccc(O)cc1)c1nnc(C)n1-2 (centres undefined) + Cn1nnc2c(C(N)=O)ncn2c1=O displays viability, T/C of 78.2%

Item: CNCc1ccc(-c2cc(-c3nc(-c4ccc(S(=O)(=O)C(C)C)cc4)cnc3N)on2)cc1 + Cn1nnc2c(C(N)=O)ncn2c1=O | viability, T/C: 75.1%

FYI, the data here is from PubChem BioAssay AID1845216.
